molecular target: SIRT1 (Homo sapiens); experiment: Mass spectrometry based assay to identify modulators of SIRT1 activity (deacetylation of p53-based acetylated peptide); assay type: biochemical; conditions: SIRT1 activation; 10 nM SIRT1, 0.5 μM peptide substrate, 120 μM βNAD+, 25 minutes at 25° C.
readout: EC1.5 μM

Recorded results for 4 compounds are shown here.
>>> result("O=C(Nc1cccc2c(=O)[nH]c(-c3ccccc3C(F)F)nc12)c1cnccn1 [Compound 329]")
"A (EC1.5<1.0 μM)"
>>> result("Cc1cc(NC(=O)c2cccc3c(=O)n(C)c(-c4cccc(C(F)(F)F)c4)nc23)n(C)n1 [Compound 295]")
"C (EC1.5>25 μM)"
>>> result("O=C(Nc1cccc2c(=O)[nH]c(-c3ccccc3OC(F)F)nc12)c1cnccn1 [Compound 313]")
"A (EC1.5<1.0 μM)"
>>> result("Cn1c(-c2ccncc2)nc2c(NC(=O)c3cnccn3)cccc2c1=O [Compound 279]")
"C (EC1.5>25 μM)"

-- ask I am curious: what EC1.5 μM value has been reported for O=C(Nc1cccnc1)c1cccc2c(=O)cc(-c3ccccc3Cl)[nH]c12 [Compound 441] ?
-- reply B (EC1.5 1-25 μM)

-- ask Field entry: Cc1cc(C)nc(NC(=O)c2cccc3c(=O)n(C)c(-c4cccc(C(F)(F)F)c4)nc23)c1 [Compound 306]
-- reply A (EC1.5<1.0 μM)

-- ask Field entry: Cn1c(-c2cccc(C(F)(F)F)c2)nc2c(NC(=O)c3cncc(N4CCOCC4)n3)cccc2c1=O [Compound 336]
-- reply A (EC1.5<1.0 μM)

-- ask Field entry: Cn1c(-c2cccc(C(F)(F)F)c2)nc2c(C(=O)Nc3cncc(OCC(O)CO)n3)cccc2c1=O (centres unmarked) [Compound 354]
-- reply A (EC1.5<1.0 μM)

-- ask Field entry: O=C(Nc1ccncn1)c1cccc2c(=O)cc(-c3cccc(C(F)(F)F)c3)[nH]c12 [Compound 415]
-- reply A (EC1.5<1.0 μM)

-- ask Field entry: Cn1c(-c2ccc(C(F)(F)F)cc2)nc2c(C(=O)Nc3ccccn3)cccc2c1=O [Compound 208]
-- reply C (EC1.5>25 μM)

-- ask Field entry: Cn1c(-c2ccccn2)nc2c(NC(=O)c3cnccn3)cccc2c1=O [Compound 277]
-- reply C (EC1.5>25 μM)

-- ask Field entry: O=C(Nc1cccc2c(=O)cc(-c3cccc(C(F)(F)F)c3)[nH]c12)c1cncnc1 [Compound 421]
-- reply B (EC1.5 1-25 μM)

-- ask Field entry: Cn1c(-c2cccc(C(F)(F)F)c2)nc2c(NC(=O)c3cccnc3OCC(O)CO)cccc2c1=O (centres unmarked) [Compound 334]
-- reply B (EC1.5 1-25 μM)

-- ask Field entry: Cn1c(-c2ccc(Cl)cc2)nc2c(C(=O)Nc3ccccn3)cccc2c1=O [Compound 244]
-- reply C (EC1.5>25 μM)

-- ask Field entry: Cn1c(-c2ccccc2)nc2c(C(=O)Nc3ccccn3)cccc2c1=O [Compound 210]
-- reply B (EC1.5 1-25 μM)

-- ask Field entry: Cn1c(-c2cccc(C(F)(F)F)c2)nc2c(NC(=O)c3cscn3)cccc2c1=O [Compound 201]
-- reply A (EC1.5<1.0 μM)

----------
Target: SIRT1 (Homo sapiens)
Sequence (Q96EB6 1-747): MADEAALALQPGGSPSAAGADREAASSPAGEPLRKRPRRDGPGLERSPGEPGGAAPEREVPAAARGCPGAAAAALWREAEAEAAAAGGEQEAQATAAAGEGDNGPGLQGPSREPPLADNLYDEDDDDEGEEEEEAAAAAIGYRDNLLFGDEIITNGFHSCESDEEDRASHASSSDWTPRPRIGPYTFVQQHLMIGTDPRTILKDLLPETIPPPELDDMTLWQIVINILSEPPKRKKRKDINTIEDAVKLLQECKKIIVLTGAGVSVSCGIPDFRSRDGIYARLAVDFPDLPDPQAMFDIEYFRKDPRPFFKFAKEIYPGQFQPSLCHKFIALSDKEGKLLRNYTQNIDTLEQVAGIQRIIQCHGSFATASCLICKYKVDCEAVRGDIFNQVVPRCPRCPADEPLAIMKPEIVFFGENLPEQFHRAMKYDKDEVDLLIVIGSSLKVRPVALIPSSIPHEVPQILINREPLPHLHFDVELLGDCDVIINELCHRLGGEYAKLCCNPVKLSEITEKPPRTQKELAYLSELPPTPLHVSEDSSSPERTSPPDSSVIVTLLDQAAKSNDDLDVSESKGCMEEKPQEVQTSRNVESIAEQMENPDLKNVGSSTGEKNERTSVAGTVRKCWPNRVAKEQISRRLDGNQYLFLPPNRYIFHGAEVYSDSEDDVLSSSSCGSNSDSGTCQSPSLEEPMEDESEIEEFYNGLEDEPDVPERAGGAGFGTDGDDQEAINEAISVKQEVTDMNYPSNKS
Assay: Mass spectrometry based assay to identify modulators of SIRT1 activity (deacetylation of p53-based acetylated peptide)
Type: biochemical
Conditions: 10 nM SIRT1, 0.5 μM peptide substrate, 120 μM βNAD+, 25 minutes at 25° C.
readout: % Fold Act. (percent maximum fold activation)

>>> result("O=C(Nc1cccc2c(=O)[nH]c(-c3ccccc3C(F)(F)F)nc12)c1cnccn1")
"A (Fold activation>200%)"
>>> result("Cn1c(-c2cccc(OC(F)(F)F)c2)nc2c(C(=O)Nc3ccccn3)cccc2c1=O")
"A (Fold activation>200%)"
>>> result("Cn1c(-c2cccc(C(F)(F)F)c2)nc2c(NC(=O)c3cnccn3)cccc2c1=O")
"A (Fold activation>200%)"
>>> result("CC(C)Cn1c(-c2cccc(C(F)(F)F)c2)nc2c(C(=O)Nc3ccccn3)cccc2c1=O")
"B (Fold Activation<200%)"

-- ask I am curious: what % Fold Act. (percent maximum fold activation) value has been reported for O=C(Nc1nccs1)c1cccc2c(=O)cc(-c3cccc(OC(F)(F)F)c3)[nH]c12 ?
-- reply A (Fold activation>200%)

-- ask Field entry: O=C(Nc1ccncc1)c1cccc2c(=O)cc(-c3cccc(C(F)(F)F)c3)[nH]c12
-- reply A (Fold activation>200%)

-- ask Field entry: Cn1c(-c2cccc(C(F)(F)F)c2)nc2c(C(=O)Nc3ccnc(OCC(O)CO)n3)cccc2c1=O (centres unmarked)
-- reply A (Fold activation>200%)

-- ask Field entry: Cn1cnc(-c2nc3c(NC(=O)c4cnccn4)cccc3c(=O)n2C)c1
-- reply B (Fold Activation<200%)
